# Target Desc: MICB*005 on HCC1534 cells (human); further: test concentration or dose not given here
# Protocol Notes: cell-based or functional assay
In this section we review reported % Inhibition values for a set of binders.
Numeric answer only, unit % assumed.

Binder: 1D5v26 (antibody, IgG1, V domains shown, humanized variant of 1D5) VH: EVQLVQSGAEVKKPGASVKVSCKASGYAFTSQNIYWVRQAPGQGLEWIGYIEPYNVVPMYNPKFKGRVTITRDKSTSTAYLELSSLRSEDTAVYYCARSGSSNFDYWGQGTLVTVSS VL: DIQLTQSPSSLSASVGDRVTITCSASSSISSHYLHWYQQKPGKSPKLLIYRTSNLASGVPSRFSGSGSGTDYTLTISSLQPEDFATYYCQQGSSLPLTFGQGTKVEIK
% Inhibition (%): 42

Inquiry: Please look up its % Inhibition: 1D5v24 (antibody, IgG1, V domains shown, humanized variant of 1D5) VH: EVQLVQSGAEVKKPGASVKVSCKASGYAFTSQNIYWVRQAPGQGLEWIGYIEPYNVVPMYNPKFKGRVTITVDKSTSTAYLELSSLRSEDTAVYYCARSGSSNFDYWGQGTLVTVSS VL: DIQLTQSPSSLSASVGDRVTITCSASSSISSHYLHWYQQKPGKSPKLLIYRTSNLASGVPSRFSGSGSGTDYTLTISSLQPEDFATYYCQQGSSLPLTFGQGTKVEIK
Reply text: 43

Where these numbers come from: patent US20200055939A1
